target: UniProt:P11388; assay: Inhibition of recombinant human DNA topoisomerase-2alpha using supercoiled pBR322 plasmid DNA as substrate at 20 uM after 30 mins by agarose gel electrophoresis relative to control
Sequence (P11388 whole entry): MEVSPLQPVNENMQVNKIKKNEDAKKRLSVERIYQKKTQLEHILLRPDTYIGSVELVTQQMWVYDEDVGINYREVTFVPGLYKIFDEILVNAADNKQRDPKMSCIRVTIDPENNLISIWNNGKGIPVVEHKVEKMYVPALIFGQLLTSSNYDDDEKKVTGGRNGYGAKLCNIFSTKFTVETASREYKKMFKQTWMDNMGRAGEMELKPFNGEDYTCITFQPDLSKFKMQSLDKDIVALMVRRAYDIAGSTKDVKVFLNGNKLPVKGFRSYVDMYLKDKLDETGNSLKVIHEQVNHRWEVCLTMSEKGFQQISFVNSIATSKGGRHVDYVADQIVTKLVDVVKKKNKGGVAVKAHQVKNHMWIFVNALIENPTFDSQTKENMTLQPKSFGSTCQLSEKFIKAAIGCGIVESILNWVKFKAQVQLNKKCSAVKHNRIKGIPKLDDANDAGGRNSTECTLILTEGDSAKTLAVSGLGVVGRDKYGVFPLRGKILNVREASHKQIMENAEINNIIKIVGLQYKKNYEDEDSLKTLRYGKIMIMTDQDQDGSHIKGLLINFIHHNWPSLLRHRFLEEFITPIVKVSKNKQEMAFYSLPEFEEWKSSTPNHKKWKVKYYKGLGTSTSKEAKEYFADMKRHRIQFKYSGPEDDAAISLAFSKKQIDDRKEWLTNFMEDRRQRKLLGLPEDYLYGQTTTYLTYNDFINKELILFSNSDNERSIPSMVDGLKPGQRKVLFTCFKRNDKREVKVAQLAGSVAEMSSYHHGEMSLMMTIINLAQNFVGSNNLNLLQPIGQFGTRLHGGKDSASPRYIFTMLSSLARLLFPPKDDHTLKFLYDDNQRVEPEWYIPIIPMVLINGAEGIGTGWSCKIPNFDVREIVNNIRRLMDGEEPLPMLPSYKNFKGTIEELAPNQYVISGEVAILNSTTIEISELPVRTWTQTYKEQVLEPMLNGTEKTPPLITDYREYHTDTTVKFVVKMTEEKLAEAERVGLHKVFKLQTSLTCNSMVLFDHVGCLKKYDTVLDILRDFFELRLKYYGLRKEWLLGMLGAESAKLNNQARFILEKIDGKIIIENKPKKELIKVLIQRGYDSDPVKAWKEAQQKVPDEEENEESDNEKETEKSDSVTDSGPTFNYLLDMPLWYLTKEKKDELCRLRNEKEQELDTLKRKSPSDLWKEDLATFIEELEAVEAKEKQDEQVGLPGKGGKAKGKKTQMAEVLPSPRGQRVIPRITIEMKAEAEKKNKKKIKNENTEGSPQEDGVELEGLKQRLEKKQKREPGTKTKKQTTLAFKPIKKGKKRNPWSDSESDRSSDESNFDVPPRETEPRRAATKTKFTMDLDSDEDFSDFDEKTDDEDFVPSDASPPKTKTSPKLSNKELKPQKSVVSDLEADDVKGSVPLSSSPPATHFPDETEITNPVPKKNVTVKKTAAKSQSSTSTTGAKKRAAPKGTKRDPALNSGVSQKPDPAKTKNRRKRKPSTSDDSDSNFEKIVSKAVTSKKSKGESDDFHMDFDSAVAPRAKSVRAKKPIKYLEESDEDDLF
OBSERVED PROPERTY: inhibition (%)

>  <MOLECULE>
Oc1ccc(-c2cc(-c3ccco3)cc(-c3cccc(O)c3)n2)cc1

>  <VALUE OBSERVED>
21.8

$$$$
>  <MOLECULE>
Oc1cccc(-c2cc(-c3ccccn3)cc(-c3ccccc3O)n2)c1

>  <VALUE OBSERVED>
1.5

$$$$
>  <MOLECULE>
Oc1ccccc1-c1cc(-c2ccccn2)cc(-c2ccccc2O)n1

>  <VALUE OBSERVED>
4.3

$$$$

Attribution: ChEMBL document CHEMBL3585276
